Test system: SK-MEL-2 melanoma
method-summary: NCI tumour cell line growth inhibition, 48 h
Consider the following compounds; for each one, report its TGI.

Check out these entries, answers already filled in.
INSERT INTO assay_data (compound, recorded_metric, obs_value) VALUES
  ('CC(CCc1nc2ccccc2s1)(c1ccc(O)cc1)c1ccc(O)cc1', 'TGI', '31.4 µM'),
  ('CN(C)CCN1C(=O)c2cccc3c(/C=C/CN4C(=O)c5cccc6cccc(c56)C4=O)ccc(c23)C1=O', 'TGI', '> 100 µM'),
  ('NC1CCCCC1NCCNC1CCCCC1N (stereo unspecified)', 'TGI', '> 100 µM'),
  ('O=c1cc(-c2ccccc2)[nH]c2c1CCCC2', 'TGI', '> 100 µM'),
  ('C=CCC12CC(=O)CCC1c1ccc(OC)cc1C2=O (stereo unspecified)', 'TGI', '> 100 µM');

Query block: Sample CCCCCCCCCCCNC=O — what was its TGI?
Result block: 66.1 µM

---

Consider the following compounds; for each one, report its GI50.
Tested on: CAKI-1 renal
method-summary: NCI tumour cell line growth inhibition, 48 h

INSERT INTO measurements (compound, recorded_metric, obs_value) VALUES
  ('COc1cc2nc(N3CCC[C@H](NC4=CC(=O)c5ccccc5C4=O)C3)nc(N)c2cc1OC', 'GI50', '1.89 µM'),
  ('CCN1CCN(c2cc(C(=O)Nc3cccc(Nc4ccc5c(OC)cccc5n4)c3)cc(C(F)(F)F)c2)CC1', 'GI50', '0.917 µM'),
  ('C=C(C(=O)OC)[C@@H]1CC2OC1C(=O)C(C)CCC/C(C)=C/CC[C@@]2(C)O (stereo not given in full)', 'GI50', '11.4 µM');

Would you mind giving GI50 for every compound in the list below?
1. O=C1OCC2=C1C(c1cccc(C(F)(F)F)c1)c1cc3c(cc1N2CCO)OCCO3 (stereo not given)
2. C=CC1C(CC2OC(CO)C(O)C(O)C2O)OC=C2C(=O)OCCC21O (stereo not given)
3. CC(C)=Cc1cc(C)c2ccc(C)c3c2c1C(C)=C(O)C3=O
4. OCCCCC#Cc1ccccc1C#Cc1cccnc1
5. CCC[CH2][Sn]([CH2]CCC)([CH2]CCC)/[C](=C/[Si](C)(C)c1ccccc1)c1ccc2c(c1)OCO2

Result block:
["1.15 µM", "30.6 µM", "23.8 µM", "29.1 µM", "16 µM"]

Would you mind giving GI50 for every compound in the list below?
1. COc1cc(S(=O)(=O)Nc2nc(-c3ccc(N4C(=O)C(C)SC4c4ccccc4O)cc3)cs2)ccc1Cl (stereo not given)
2. Cc1nn(C)c2ncnc(N/N=C/c3cccc(O)c3O)c12

Result block:
1. 67.7 µM
2. 1.31 µM

---

Consider the following compounds; for each one, report its TGI.
Tested on: BT-549 breast
method-summary: NCI tumour cell line growth inhibition, 48 h

Check out these entries, answers already filled in.
INSERT INTO measurements (compound_structure, obs_value) VALUES
  ('O=c1[nH]n(CCc2ccccc2CCl)c2ccc([N+](=O)[O-])cc12', '> 100 µM'),
  ('COc1c(OC)c(OC)c2c(=O)cc(-c3ccc(OC(C)C)cc3)oc2c1OC', '> 49.9 µM'),
  ('Cc1cc(N2CCCCC2)nc2ccc(Cc3ccc4nc(N5CCCCC5)cc(C)c4c3)cc12', '> 100 µM');

Query block: Sample C/C(=N\Nc1nc2ccccc2[nH]1)c1ncccn1 — what was its TGI?
Result block: > 100 µM
